# measurement.target: Transcriptional activator Myb (Homo sapiens) (UniProt P10242)
# Sequence (P10242 whole entry, looked up): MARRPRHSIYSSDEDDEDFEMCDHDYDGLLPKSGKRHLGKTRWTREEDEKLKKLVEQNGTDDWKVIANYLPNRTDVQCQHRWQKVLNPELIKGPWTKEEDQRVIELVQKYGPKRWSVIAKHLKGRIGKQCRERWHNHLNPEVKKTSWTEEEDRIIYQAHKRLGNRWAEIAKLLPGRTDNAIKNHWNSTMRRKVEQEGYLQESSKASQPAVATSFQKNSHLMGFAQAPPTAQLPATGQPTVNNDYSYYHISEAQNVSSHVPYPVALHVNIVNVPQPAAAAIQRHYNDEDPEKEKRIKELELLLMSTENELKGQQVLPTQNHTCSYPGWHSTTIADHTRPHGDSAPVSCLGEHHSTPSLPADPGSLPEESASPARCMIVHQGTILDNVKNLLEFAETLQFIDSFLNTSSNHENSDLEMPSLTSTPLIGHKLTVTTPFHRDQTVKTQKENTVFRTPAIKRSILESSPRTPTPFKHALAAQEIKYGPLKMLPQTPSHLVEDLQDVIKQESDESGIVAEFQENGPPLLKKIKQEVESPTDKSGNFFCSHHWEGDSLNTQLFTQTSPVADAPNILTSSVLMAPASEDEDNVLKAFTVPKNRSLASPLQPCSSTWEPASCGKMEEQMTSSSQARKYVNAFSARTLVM
# method.notes: ATG_Myb_CIS: Attagene CIS-FACTORIAL HepG2 Assay for human Myeloblastosis (Myb) Proto-Oncogene Transcription Factor (AID 2282986)
# test.parameters: HepG2 Attagene CIS-FACTORIAL Myb reporter transcription; actives raise or lower the signal
Active and inactive are the calls of the source. Rule for the calls: active = hit-call score of the fitted dose curve at least 0.9, where 1 is the maximum; inactive = score below 0.9.
metric: outcome

Example molecules with recorded outcome:
CC(C)(C)OC(=O)c1ccc(O)cc1 ... inactive
CC(=O)O[C@@H]1CC2CCC1(C)C2(C)C (some centres undefined) ... inactive
NC(=S)NNC(N)=S ... inactive
C=C(C)[C@H]1CC=C(C)C(=O)C1 ... inactive
CCCCSCCCC ... inactive

Prompt: Tell me reported outcome for "C=C(C)C(=O)OCCOCCOCCOCCOC(=O)C(=C)C" , tested with Transcriptional activator Myb (Homo sapiens) (UniProt P10242).
Response: inactive

Prompt: What about this molecule? "C[Si]1(C)O[Si](C)(C)O[Si](C)(C)O1"
Response: inactive

Prompt: Param item: "CCCC(=O)c1ccccc1"
Response: inactive

Prompt: Try the molecule CC(C=O)Cc1ccc(C(C)(C)C)cc1 (centres undefined)
Response: inactive

Prompt: Lookup "Cc1ccc(C)o1"
Response: inactive

Prompt: Please give the result for "COc1cc([C@@H]2c3cc4c(cc3[C@@H](O[C@@H]3O[C@@H]5CO[C@@H](C)O[C@H]5[C@H](O)[C@H]3O)[C@H]3COC(=O)[C@H]23)OCO4)cc(OC)c1O" too.
Response: inactive

Prompt: Do the same for "C=CCN(CC=C)CC=C" please
Response: inactive

Prompt: Follow-up entry: "CCCCCCC(=O)c1ccccc1"
Response: inactive

Prompt: And the next one, CC1CC(O)CC(C)(C)C1 (centres undefined) ?
Response: inactive

###

# Read-out: Monocyte Chemoattractant Protein-1 (MCP1), CCL2 (gene 6347)
# method.notes: BSK_3C_MCP1: BioMAP Diversity Plus: 3C Assay for Monocyte Chemoattractant Protein-1 (MCP1) Biomarker Activity (AID 2283017)
# test.parameters: primary human endothelial cells (HUVEC); actives raise or lower the signal
Calls of active or inactive are those of the source. The calls were made as follows: active = hit-call score of the fitted dose curve at least 0.9, where 1 is the maximum; inactive = score below 0.9.
Mark one answer only. Choices: true (1) = active, false (0) = inactive

Prompt: In this assay, the call recorded for "CN(c1nccc(=O)[nH]1)C1CCN(c2nc3ccccc3n2Cc2ccc(F)cc2)CC1" was what?
Response: false (0)

Prompt: Also check "O=C1OC[C@H](Cc2cccc(O)c2)[C@H]1Cc1cccc(O)c1"
Response: false (0)

Prompt: Also need "Clc1cc(Cl)c(-c2c(Cl)c(Cl)cc(Cl)c2Cl)cc1Cl" , thanks.
Response: true (1)

Prompt: Another compound to check: "CC(=O)c1c(C)c([N+](=O)[O-])c(C(C)(C)C)c([N+](=O)[O-])c1C"
Response: false (0)

Prompt: Same question for "O=C(Nc1ccc2c(O)c(N=Nc3ccc(N=Nc4ccc(S(=O)(=O)O)cc4)cc3)c(S(=O)(=O)O)cc2c1)c1ccccc1" please.
Response: false (0)

###

# Read-out: CD38, CD38 (gene 952)
# method.notes: BSK_SAg_CD38: BioMAP Diversity Plus: SAg Assay for CD38 Biomarker Activity (AID 2283087)
# test.parameters: primary human HUVEC with PBMC; actives raise or lower the signal
Calls of active or inactive are those of the source. How the source made its calls: active means hit-call score of the fitted dose curve at least 0.9, where 1 is the maximum; inactive means score below 0.9.
Field 'call' accepts active, inactive

Prompt: For "O=C1OC2(c3ccccc31)c1ccc(O)c(Br)c1Oc1c2ccc(O)c1Br" , what call appears in the results of this test?
Response: active

Prompt: Query "CS(=O)(=O)OCCCCOS(C)(=O)=O" next
Response: inactive

Prompt: CC(C=O)Cc1ccc(C(C)(C)C)cc1 (stereo unspecified) , same question.
Response: inactive

Prompt: Let us now turn to "CCOC(=O)C(C#N)=C(c1ccccc1)c1ccccc1"
Response: inactive

Prompt: // repeat for CC(=O)C1(C)CC2=C(CCCC2(C)C)CC1C (stereo unspecified) and report
Response: active

Prompt: Request: "O=C(Nc1ccc2c(O)c(N=Nc3ccc(N=Nc4ccc(S(=O)(=O)O)cc4)cc3)c(S(=O)(=O)O)cc2c1)c1ccccc1"
Response: inactive

Prompt: Lookup "CN(c1nccc(=O)[nH]1)C1CCN(c2nc3ccccc3n2Cc2ccc(F)cc2)CC1"
Response: inactive

Prompt: Try this compound next: "CCCCCCCCCCCCCCCC(=O)OC/C=C(C)/C=C/C=C(C)/C=C/C1=C(C)CCCC1(C)C"
Response: active

Prompt: What about "CC1(C)C2=CCCC(C)(C)[C@]23CC[C@H]1C3" ?
Response: inactive

Prompt: Repeat with "CCN(CC)C(=O)N(CC)CC"
Response: inactive

Prompt: Entry "CCCCN(CCCC)C(=O)N(CCCC)CCCC" please
Response: inactive

###

# measurement.target: Heat shock factor protein 1 (Homo sapiens) (UniProt Q00613)
# Sequence (Q00613 whole entry, looked up): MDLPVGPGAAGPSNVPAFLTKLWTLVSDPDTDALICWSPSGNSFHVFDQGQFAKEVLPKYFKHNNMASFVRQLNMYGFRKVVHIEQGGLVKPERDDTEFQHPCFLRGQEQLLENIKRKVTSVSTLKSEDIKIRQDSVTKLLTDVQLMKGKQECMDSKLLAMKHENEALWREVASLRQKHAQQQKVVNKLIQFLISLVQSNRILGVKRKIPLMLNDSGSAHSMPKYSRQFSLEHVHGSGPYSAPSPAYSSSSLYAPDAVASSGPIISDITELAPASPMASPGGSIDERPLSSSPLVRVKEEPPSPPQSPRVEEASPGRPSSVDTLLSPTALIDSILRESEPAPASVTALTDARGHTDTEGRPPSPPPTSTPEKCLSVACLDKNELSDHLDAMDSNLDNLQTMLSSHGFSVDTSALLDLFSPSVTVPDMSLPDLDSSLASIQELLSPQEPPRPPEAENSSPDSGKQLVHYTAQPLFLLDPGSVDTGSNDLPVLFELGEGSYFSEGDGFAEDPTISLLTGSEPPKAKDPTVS
# method.notes: ATG_HSE_CIS: Attagene CIS-FACTORIAL HepG2 Assay for human Heat Shock Transcription Factor 1 (HSE) (AID 2282953)
# test.parameters: HepG2 HSE cis-reporter, Attagene RNA transcription; actives raise or lower the signal
Active and inactive are the calls of the source. Rule for the calls: active = hit-call score of the fitted dose curve at least 0.9, where 1 is the maximum; inactive = score below 0.9.
Your reply should match one of these outcome classes. class 1 (active), class 0 (inactive)

Prompt: Assay result, entry "Oc1ccc2cc(SSc3ccc4cc(O)ccc4c3)ccc2c1" — outcome?
Response: class 1

Prompt: # repeat for "CCCCCC(=O)CC"
Response: class 0

Prompt: Can you handle "OCc1cccc(Oc2ccccc2)c1" next?
Response: class 0

Prompt: Now give it for "c1ccc(Oc2ccccc2)cc1" too.
Response: class 0

Prompt: Item: "N#Cc1cscn1"
Response: class 0

Prompt: Could you do the same for "CCC1CCCCC1" , please?
Response: class 0

Prompt: Next: "ON=C1CCCCC1"
Response: class 0

Prompt: What do we get for "C=C(C#N)C(=O)OCC" ?
Response: class 1

Prompt: # repeat for "CC(C)C[C@H](NC(=O)OCC1c2ccccc2-c2ccccc21)C(=O)O"
Response: class 0

Prompt: Now consider "O=C1CCCC=CCCCCCCCCCC1" .
Response: class 1

Prompt: Another: "O=c1[nH]c(=O)c2cn[nH]c2[nH]1"
Response: class 0

Prompt: Could you do the same for "CCC(C)=O" , please?
Response: class 0

Prompt: And for "OCc1ccc(Cl)cc1Cl" ?
Response: class 0

Prompt: Further, for "Cc1cc(S(=O)(=O)O)ccc1N=Nc1c(O)ccc2ccccc12" ?
Response: class 0

Prompt: Input "CCOC(=O)COC(=O)c1cc(Oc2ccc(C(F)(F)F)cc2Cl)ccc1[N+](=O)[O-]"
Response: class 0

Prompt: Same thing, different compound: "O=C1c2ccccc2C(=O)c2c(O)ccc(O)c21"
Response: class 0

Prompt: // next record "C=Cc1ccc(C(C)(C)C)cc1"
Response: class 0

Prompt: Entry "CC1(C)COCN1" please
Response: class 0

Prompt: Next entry: "CN(C)C(=O)Nc1ccc(Oc2ccc(Cl)cc2)cc1"
Response: class 1

Prompt: What do you have for "O=C(O)CNc1ccccc1" ?
Response: class 0

Prompt: Quick one: "NC(=S)NNC(N)=S"
Response: class 0

Prompt: Param item: CC(C=O)Cc1ccc(C(C)(C)C)cc1 (stereo unspecified)
Response: class 0

Prompt: Would you kindly repeat that for "CC(=O)O[C@H]1C[C@@H]2CC[C@@]1(C)C2(C)C" ?
Response: class 0

Prompt: // same read-out, input: "C[Si]1(C)O[Si](C)(C)O[Si](C)(C)O1"
Response: class 0

Prompt: And what about the compound "O=[N+]([O-])c1cccc(Cl)c1" ?
Response: class 0

Prompt: Repeat with CCC(Cl)C(Cl)C(Cl)CC(Cl)C(Cl)C(C)Cl (stereo unspecified)
Response: class 0

Prompt: Same lookup for "OC[C@H]1O[C@@H](Oc2ccc(O)cc2)[C@H](O)[C@@H](O)[C@@H]1O" , please.
Response: class 0

Prompt: // query: C1=CC2C3C=CC(C3)C2C1 (stereo unspecified)
Response: class 0

Prompt: Please give the result for "CCCOCCO" too.
Response: class 0

Prompt: Check "CCCCCc1ccco1" too.
Response: class 1

Prompt: Now the same for "Cc1ccc(C)o1"
Response: class 0

###

# Read-out: Human Leukocyte Antigen - DR isotype (HLADR), HLA-DRA (gene 3122)
# method.notes: BSK_BE3C_HLADR: BioMAP Diversity Plus: BE3C Assay for Human Leukocyte Antigen - DR isotype (HLADR) Biomarker Activity (AID 2283032)
# test.parameters: primary human bronchial epithelial cells; actives raise or lower the signal
Calls of active or inactive are those of the source. How the source made its calls: active means hit-call score of the fitted dose curve at least 0.9, where 1 is the maximum; inactive means score below 0.9.
Give one outcome, nothing more. List: true (active), false (inactive)

Prompt: What call does the record list for "COc1ccc(OC)c(N=Nc2c(O)ccc3ccccc23)c1" ?
Response: true

Prompt: Also, "CS(=O)(=O)OCCCCOS(C)(=O)=O" please.
Response: false

Prompt: Another: "CN(C)C(=S)SC(=S)N(C)C"
Response: true

Prompt: Thanks! And CCC(C)c1cc([N+](=O)[O-])cc([N+](=O)[O-])c1OC(=O)OC(C)C (stereo unspecified) ?
Response: true

Prompt: What do we get for "c1ccc(Oc2ccccc2)cc1" ?
Response: false

Prompt: // query: CC(CN=Cc1ccccc1O)N=Cc1ccccc1O (stereo unspecified)
Response: false
